- target-system: SIRT7 protein (Homo sapiens)
- Construct: purchased SignalChem S41-30H
- test-method-notes: SIRT Glo assay, inhibitory activity against Sirt7
- Format: biochemical
- run-conditions: 10 μM compound
readout-label: inhibition at 10 µM (%)

- CC(C)(C)OC(=O)N1CCN(Cc2ccc(C(=O)Nc3nc4ccccc4[nH]3)cc2)CC1: 12

a: O=C(Nc1nc2ccccc2s1)c1ccc(CN2CCN(S(=O)(=O)c3ccccc3)CC2)cc1
b: O=C(Nc1nc2ccccc2s1)c1c(F)cc(C=C2CCNCC2)cc1F
Prompt: Identify the entry with the smaller inhibition at 10 µM: a or b . // return label of chosen record
Completion: a

###

- target-system: SIRT7 protein (Homo sapiens, UniProt Q9NRC8)
- Construct: purchased SignalChem S41-30H
- test-method-notes: SIRT Glo assay, inhibitory activity against Sirt7
- Assay type: biochemical
- run-conditions: 10 μM compound
readout-label: inhibition at 10 µM (%)

The cases that follow already have their inhibition at 10 µM on record.
* O=C(Nc1nc2ccccc2[nH]1)c1ccc(Oc2ncc(F)cn2)cc1 [Compound 1-10] | 56
* O=C(Nc1nc2ccccc2s1)c1ccc(C=C2CCN(C(=O)Nc3ccc(C(F)(F)F)cc3)CC2)cc1F [Compound 1-93] | 70
* CC(C)(C)OC(=O)N1CCC(Cc2ccc(C(=O)Nc3nc4ccccc4s3)cc2)CC1 [Compound 1-64] | 7
* CC(C)(C)OC(=O)N1CCC(=Cc2ccc(C(=O)Nc3nc4ccccc4s3)c(C(F)(F)F)c2)CC1 [Compound 1-78] | 14
* CCc1ccccc1NC(=O)N1CCN(Cc2ccc(C(=O)Nc3nc4ccccc4s3)cc2)CC1 [Compound 1-50] | 61
* O=C(Nc1nc2ccccc2s1)c1ccc(C=C2CCN(C(=O)c3ccccc3)CC2)cc1F [Compound 1-92] | 97
* O=C(Nc1nc2ccccc2s1)c1ccc(CN2CCN(C(=O)c3ccccc3)CC2)cc1 [Compound 1-60] | 7
* CC(C)NC(=O)N1CCN(Cc2ccc(C(=O)Nc3nc4ccccc4s3)cc2)CC1 [Compound 1-40] | 87
* O=C(Nc1nc2ccccc2s1)c1ccc(CN2CCC3(CC2)OCCO3)cc1 [Compound 1-29] | 83
* CN(C)S(=O)(=O)N1CCN(Cc2ccc(C(=O)Nc3nc4ccccc4s3)cc2)CC1 [Compound 1-33] | 33

a: CCNC(=O)N1CCC(=Cc2ccc(C(=O)Nc3nc4ccccc4s3)c(C(F)(F)F)c2)CC1 [Compound 1-80]
b: Cc1ccc(Oc2ccc(C(=O)Nc3nc4ccc(Br)cc4s3)cc2)nn1 [Compound 1-18]
Prompt: Consider a and b . Which of these has its inhibition at 10 µM at a higher number? // return label of chosen record
Completion: a

A: CCNC(=O)N1CCC(=Cc2cc(F)c(C(=O)Nc3nc4ccccc4s3)c(F)c2)CC1 [Compound 1-100]
B: O=C(Nc1nc2ccccc2s1)c1ccc(CN2CCNCC2)cc1 [Compound 1-31]
Prompt: Identify the entry with the smaller inhibition at 10 µM: A or B . // return label of chosen record
Completion: B

P: O=C(Nc1nc2ccccc2s1)c1ccc(CN2CCN(C(=O)Nc3ccccc3F)CC2)cc1 [Compound 1-45]
Q: O=C(Nc1nc2ccccc2[nH]1)c1ccc(OCc2ccc(C(F)(F)F)cc2)cc1 [Compound 1-13]
R: CC(C)(C)CC(C)(C)NC(=O)N1CCN(Cc2ccc(C(=O)Nc3nc4ccccc4s3)cc2)CC1 [Compound 1-57]
S: O=C(Nc1nc2ccccc2s1)c1ccc(CC2CCNCC2)cc1C(F)(F)F [Compound 1-83]
Prompt: rank_up(items): orders items by reported inhibition at 10 µM in ascending numerical order. Lab note: record answer as labels in requested order.
Completion: R, Q, S, P

A: CC(C)(C)OC(=O)N1C[C@@H]2C[C@H]1CN2Cc1ccc(C(=O)Nc2nc3ccccc3s2)cc1 [Compound 1-25]
B: O=C(Nc1nc2ccccc2s1)c1ccc(CN2CCN(S(=O)(=O)c3ccc(C(F)(F)F)cc3)CC2)cc1 [Compound 1-36]
C: CC(C)(C)OC(=O)N1CCC(=Cc2ccc(C(=O)Nc3nc4ccccc4s3)cc2)CC1 [Compound 1-63]
D: O=C(Nc1nc2ccccc2s1)c1ccc(C=C2CCN(S(=O)(=O)c3ccccc3)CC2)cc1F [Compound 1-90]
Prompt: rank_up(items): orders items by reported inhibition at 10 µM in ascending numerical order. Lab note: record answer as labels in requested order.
Completion: C, B, D, A
(C: 10%, B: 15%, D: 27%, A: 72%)

###

- target-system: SIRT7 protein (Homo sapiens, UniProt Q9NRC8)
- Construct: purchased SignalChem S41-30H
- test-method-notes: SIRT Glo assay, inhibitory activity against Sirt7
- Format: biochemical
- run-conditions: 10 μM compound
readout-label: inhibition at 10 µM (%)

The cases that follow already have their inhibition at 10 µM on record.
- O=C(Nc1nc2ccccc2s1)c1ccc(Oc2ncc(F)cn2)cc1: 41
- O=C(Nc1nc2ccccc2s1)c1ccc(CN2CCN(C(=O)Nc3ccc(Cl)cc3)CC2)cc1: 89
- O=C(Nc1nc2ccccc2s1)c1ccc(C=C2CCNCC2)cc1F: 100
- O=C(Nc1nc2ccccc2s1)c1ccc(CN2CCN(C(=O)NC34CC5CC(CC(C5)C3)C4)CC2)cc1: 66
- CC(C)(C)OC(=O)N1CCC(=Cc2ccc(C(=O)Nc3nc4ccccc4s3)c(Cl)c2)CC1: 44
- O=C(Nc1nc2ccccc2s1)c1ccc(C=C2CCNCC2)cc1C(F)(F)F: 71

A: COc1ccc(NC(=O)N2CCN(Cc3ccc(C(=O)Nc4nc5ccccc5s4)cc3)CC2)cc1
B: CCS(=O)(=O)N1CCN(Cc2ccc(C(=O)Nc3nc4ccccc4s3)cc2)CC1
Prompt: Identify the entry with the smaller inhibition at 10 µM: A or B . // return label of chosen record
Completion: B

###

- target-system: SIRT7 protein (Homo sapiens, UniProt Q9NRC8)
- Construct: purchased SignalChem S41-30H
- test-method-notes: SIRT Glo assay, inhibitory activity against Sirt7
- Assay type: biochemical
- run-conditions: 10 μM compound
readout-label: inhibition at 10 µM (%)

The cases that follow already have their inhibition at 10 µM on record.
• CCNC(=O)N1CCN(Cc2ccc(C(=O)Nc3nc4ccccc4s3)cc2)CC1 [Compound 1-37] = 81
• CCc1ccc(NC(=O)N2CCN(Cc3ccc(C(=O)Nc4nc5ccccc5s4)cc3)CC2)cc1 [Compound 1-52] = 85
• Cc1ccc(Oc2ccc(C(=O)Nc3nc4cc(F)c(F)cc4[nH]3)cc2)nn1 [Compound 1-7] = 5

a: O=C(Nc1nc2ccccc2s1)c1ccc(CN2CCN(Cc3ccccc3)CC2)cc1 [Compound 1-62]
b: Cc1ccc(NC(=O)N2CCN(Cc3ccc(C(=O)Nc4nc5ccccc5s4)cc3)CC2)cc1 [Compound 1-51]
Prompt: Consider a and b . Which of these has its inhibition at 10 µM at a higher number? // return label of chosen record
Completion: b

###

- target-system: SIRT7 protein (Homo sapiens, UniProt Q9NRC8)
- Construct: purchased SignalChem S41-30H
- test-method-notes: SIRT Glo assay, inhibitory activity against Sirt7
- Assay type: biochemical
- run-conditions: 10 μM compound
readout-label: inhibition at 10 µM (%)

• CC(C)(C)OC(=O)N1CCN(Cc2ccc(C(=O)Nc3nc4ccccc4s3)cc2)CC1 = 40

P: O=C(Nc1nc2ccccc2s1)c1ccc(C=C2CCN(C(=O)Nc3ccccc3)CC2)cc1C(F)(F)F
Q: O=C(Nc1nc2ccccc2s1)c1ccc(CC2CCNCC2)cc1
R: CC(C)(C)OC(=O)N1CCC(=Cc2ccc(C(=O)Nc3nc4ccccc4s3)c(F)c2)CC1
Prompt: rank_up(items): orders items by reported inhibition at 10 µM in ascending numerical order. Lab note: record answer as labels in requested order.
Completion: Q, P, R

###

- target-system: SIRT7 protein (Homo sapiens)
- Construct: purchased SignalChem S41-30H
- Sequence (Q9NRC8 1-400): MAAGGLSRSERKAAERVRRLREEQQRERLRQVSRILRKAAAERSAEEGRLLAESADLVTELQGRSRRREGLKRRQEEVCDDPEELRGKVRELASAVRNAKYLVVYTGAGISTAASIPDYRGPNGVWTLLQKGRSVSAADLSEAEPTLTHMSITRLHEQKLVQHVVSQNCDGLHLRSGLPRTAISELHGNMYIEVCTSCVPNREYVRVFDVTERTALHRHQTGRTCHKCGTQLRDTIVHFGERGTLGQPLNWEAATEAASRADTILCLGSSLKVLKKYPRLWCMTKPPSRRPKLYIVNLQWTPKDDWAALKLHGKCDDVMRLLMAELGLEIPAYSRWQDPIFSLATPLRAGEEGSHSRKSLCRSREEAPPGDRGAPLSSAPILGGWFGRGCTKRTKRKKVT
- test-method-notes: SIRT Glo assay, inhibitory activity against Sirt7
- Format: biochemical
- run-conditions: 10 μM compound
- Procedure: Promega's Cat. No. 6450 SIRT Glo assay kit was used, and as the target SIRT7 protein, No. S41-30H protein of SignalChem's Cat. was used. […] After adding 5 μL of SIRT Glo buffer to the positive control group, and 5 μL of the diluted compound to the compound group, react for 30 minutes. After making the substrate provided in the SIRT Glo assay, adding 10 μL each, and reacting for 1 hour, the luciferase activity is measured with a microplate reader (Molecular Device, spectramax i3). […]
readout-label: inhibition at 10 µM (%)

• CC(C)(C)OC(=O)N1CCC2(CCN(Cc3ccc(C(=O)Nc4nc5ccccc5s4)cc3)CC2)CC1 [Compound 1-28] = 62
• CCCCOC(=O)CNC(=O)N1CCN(Cc2ccc(C(=O)Nc3nc4ccccc4s3)cc2)CC1 [Compound 1-48] = 54
• O=C(Nc1nc2ccccc2s1)c1ccc(CN2CCN(C(=O)NCCl)CC2)cc1 [Compound 1-54] = 100
• CCCNC(=O)N1CCN(Cc2ccc(C(=O)Nc3nc4ccccc4s3)cc2)CC1 [Compound 1-55] = 100

I: CCNC(=O)N1CCC(=Cc2ccc(C(=O)Nc3nc4ccccc4s3)cc2)CC1 [Compound 1-67]
II: O=C(Nc1nc2ccccc2s1)c1ccc(CN2C[C@@H]3C[C@H]2CN3)cc1 [Compound 1-71]
III: O=C(Nc1nc2ccccc2s1)c1ccc(C=C2CCN(C(=O)Nc3ccc(C(F)(F)F)cc3)CC2)cc1Cl [Compound 1-107]
IV: CC(C)(C)OC(=O)N1CCN(c2nc3ccccc3s2)CC1 [Compound 1-22]
Prompt: rank_up(items): orders items by reported inhibition at 10 µM in ascending numerical order. Lab note: record answer as labels in requested order.
Completion: II, III, IV, I

Entry source: patent US20240116897A1
